biological target: P. falciparum Hsp90 (PfHsp90, PF07_0029) (Plasmodium falciparum)
RECORDED_METRIC: Kd (µM)

{"SMILES_STRING": "C=CCNC1=C2C[C@@H](C)C[C@H](OC)[C@H](O)[C@@H](C)/C=C(\\C)[C@H](OC(N)=O)[C@@H](OC)/C=C\\C=C(/C)C(=O)NC(=CC1=O)C2=O", "NUMERIC_READOUT": 105}

====

molecular target: UniProtKB Q8IC05
RECORDED_METRIC: IC50 (nM)

{"SMILES_STRING": "C[C@@H]1C[C@H]2O[C@@H]2/C=C\\C=C\\C(=O)Cc2c(Cl)c(O)cc(O)c2C(=O)O1", "RECORDED_METRIC": "IC50", "DISPLAY_UNIT": "nM", "NUMERIC_READOUT": 144}
